Record form. Attribute: Ki. Fill in for each entry.
experimental.target: δ receptors (Rattus norvegicus)
Sequence (P33533 whole entry): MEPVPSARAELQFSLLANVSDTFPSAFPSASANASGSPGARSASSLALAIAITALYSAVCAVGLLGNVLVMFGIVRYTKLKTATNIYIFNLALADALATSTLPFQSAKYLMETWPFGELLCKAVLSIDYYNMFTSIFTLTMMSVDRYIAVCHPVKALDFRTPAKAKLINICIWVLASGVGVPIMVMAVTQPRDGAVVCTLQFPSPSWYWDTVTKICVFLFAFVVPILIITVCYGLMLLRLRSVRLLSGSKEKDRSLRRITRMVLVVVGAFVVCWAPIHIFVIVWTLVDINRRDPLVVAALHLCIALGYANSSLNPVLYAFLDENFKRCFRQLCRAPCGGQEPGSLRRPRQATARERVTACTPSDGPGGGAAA
Give a bare numeral; the unit nM is implied.

q: What measured Ki is associated with Cc1cc(O)cc(C)c1CC(N)C(=O)N1Cc2ccccc2C[C@H]1C(=O)NCCCc1ccccc1.O=C(O)C(F)(F)F (stereo partly drawn) on δ receptors (Rattus norvegicus)?
a: 0.84

q: What measured Ki is associated with Cc1cc(O)cc(C)c1CC(NC(=N)N)C(=O)N1Cc2ccccc2C[C@H]1C(=O)NC[C@H](O)Cc1ccccc1 (stereo partly drawn) on δ receptors (Rattus norvegicus)?
a: 0.56

q: What measured Ki is associated with Cc1cc(O)cc(C)c1C[C@H](N)C(=O)N1Cc2ccccc2C[C@H]1C(=O)NCC(O)Cc1ccccc1.O=C(O)C(F)(F)F (stereo partly drawn) on δ receptors (Rattus norvegicus)?
a: 0.1
